system: UniProt P10826
Sequence (whole entry): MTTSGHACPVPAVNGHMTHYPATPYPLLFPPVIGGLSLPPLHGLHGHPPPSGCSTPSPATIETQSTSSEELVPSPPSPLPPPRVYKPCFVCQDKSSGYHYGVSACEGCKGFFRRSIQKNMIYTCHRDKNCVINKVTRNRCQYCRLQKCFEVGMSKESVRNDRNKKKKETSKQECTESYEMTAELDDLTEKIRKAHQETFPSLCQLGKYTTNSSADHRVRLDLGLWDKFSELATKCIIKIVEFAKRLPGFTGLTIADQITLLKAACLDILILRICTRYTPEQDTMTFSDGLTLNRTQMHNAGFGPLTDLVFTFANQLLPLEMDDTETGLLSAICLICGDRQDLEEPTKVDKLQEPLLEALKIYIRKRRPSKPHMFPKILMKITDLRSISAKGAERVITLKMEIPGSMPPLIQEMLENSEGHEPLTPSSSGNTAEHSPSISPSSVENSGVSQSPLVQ
assay_notes: Efficacy against RARbeta1
The source made the active and inactive calls. No cut-off for these calls is given here.
measure_name: Efficacy

Consider the worked cases shown below.
INSERT INTO measurements (mol_smiles, system, measure_name, result) VALUES
  ('CCCCCCCCCc1ccc(-c2ccc(C(=O)O)cc2)cc1', 'UniProt P10826', 'Efficacy', '58%'),
  ('CCc1ccc(-c2ccc(C(=O)O)cc2)cc1', 'UniProt P10826', 'Efficacy', 'inactive'),
  ('CCCCCCc1ccc(-c2ccc(C(=O)O)cc2)cc1', 'UniProt P10826', 'Efficacy', 'inactive'),
  ('CCCCCCCCc1ccc(-c2ccc(C(=O)O)cc2)cc1', 'UniProt P10826', 'Efficacy', '31%');

## Input Note Efficacy for the compound shown: `CCCc1ccc(-c2ccc(C(=O)O)cc2)cc1`
## Output inactive

## Input Note Efficacy for the compound shown: `CCCCc1ccc(-c2ccc(C(=O)O)cc2)cc1`
## Output inactive
